Quick note: these are IC50 numbers for system: Peptidyl-prolyl cis-trans isomerase NIMA-interacting 1 (Homo sapiens, UniProt Q13526)
Sequence (Q13526 whole entry): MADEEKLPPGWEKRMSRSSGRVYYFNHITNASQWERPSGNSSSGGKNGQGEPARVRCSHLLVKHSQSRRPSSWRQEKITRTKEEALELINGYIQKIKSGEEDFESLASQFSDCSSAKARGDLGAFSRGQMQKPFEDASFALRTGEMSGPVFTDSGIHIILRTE

Some solved entries appear below for comparison.
{"SMILES RECORD": "Cn1nc(-c2ccccc2)cc1C(=O)N[C@H](CC(=O)N1CCCC1)C(=O)O", "TARGET": "Peptidyl-prolyl cis-trans isomerase NIMA-interacting 1 (Homo sapiens, UniProt Q13526)", "IC50": "> 100 µM"}
{"SMILES RECORD": "Cn1nc(-c2ccccc2)cc1C(=O)N[C@H](CCC(=O)NC1CCCC1)C(=O)O", "TARGET": "Peptidyl-prolyl cis-trans isomerase NIMA-interacting 1 (Homo sapiens, UniProt Q13526)", "IC50": "> 100 µM"}
{"SMILES RECORD": "Cn1nc(-c2ccccc2)cc1C(=O)N[C@H](CC(=O)NC1CCCCC1)C(=O)O", "TARGET": "Peptidyl-prolyl cis-trans isomerase NIMA-interacting 1 (Homo sapiens, UniProt Q13526)", "IC50": "67 µM"}
{"SMILES RECORD": "Cn1nc(-c2ccccc2)cc1C(=O)N[C@H](CCC(=O)c1ccc[nH]1)C(=O)O", "TARGET": "Peptidyl-prolyl cis-trans isomerase NIMA-interacting 1 (Homo sapiens, UniProt Q13526)", "IC50": "> 100 µM"}

Kindly indicate its recorded IC50. Item: O=C(C[C@@H](NC(=O)c1ccc2ccccc2c1)C(=O)O)NC1CCCCCC1 > 100 µM

Reference for the values: ChEMBL document CHEMBL3632494
